Target: EGFR (Homo sapiens)
Sequence (P00533 25-1210): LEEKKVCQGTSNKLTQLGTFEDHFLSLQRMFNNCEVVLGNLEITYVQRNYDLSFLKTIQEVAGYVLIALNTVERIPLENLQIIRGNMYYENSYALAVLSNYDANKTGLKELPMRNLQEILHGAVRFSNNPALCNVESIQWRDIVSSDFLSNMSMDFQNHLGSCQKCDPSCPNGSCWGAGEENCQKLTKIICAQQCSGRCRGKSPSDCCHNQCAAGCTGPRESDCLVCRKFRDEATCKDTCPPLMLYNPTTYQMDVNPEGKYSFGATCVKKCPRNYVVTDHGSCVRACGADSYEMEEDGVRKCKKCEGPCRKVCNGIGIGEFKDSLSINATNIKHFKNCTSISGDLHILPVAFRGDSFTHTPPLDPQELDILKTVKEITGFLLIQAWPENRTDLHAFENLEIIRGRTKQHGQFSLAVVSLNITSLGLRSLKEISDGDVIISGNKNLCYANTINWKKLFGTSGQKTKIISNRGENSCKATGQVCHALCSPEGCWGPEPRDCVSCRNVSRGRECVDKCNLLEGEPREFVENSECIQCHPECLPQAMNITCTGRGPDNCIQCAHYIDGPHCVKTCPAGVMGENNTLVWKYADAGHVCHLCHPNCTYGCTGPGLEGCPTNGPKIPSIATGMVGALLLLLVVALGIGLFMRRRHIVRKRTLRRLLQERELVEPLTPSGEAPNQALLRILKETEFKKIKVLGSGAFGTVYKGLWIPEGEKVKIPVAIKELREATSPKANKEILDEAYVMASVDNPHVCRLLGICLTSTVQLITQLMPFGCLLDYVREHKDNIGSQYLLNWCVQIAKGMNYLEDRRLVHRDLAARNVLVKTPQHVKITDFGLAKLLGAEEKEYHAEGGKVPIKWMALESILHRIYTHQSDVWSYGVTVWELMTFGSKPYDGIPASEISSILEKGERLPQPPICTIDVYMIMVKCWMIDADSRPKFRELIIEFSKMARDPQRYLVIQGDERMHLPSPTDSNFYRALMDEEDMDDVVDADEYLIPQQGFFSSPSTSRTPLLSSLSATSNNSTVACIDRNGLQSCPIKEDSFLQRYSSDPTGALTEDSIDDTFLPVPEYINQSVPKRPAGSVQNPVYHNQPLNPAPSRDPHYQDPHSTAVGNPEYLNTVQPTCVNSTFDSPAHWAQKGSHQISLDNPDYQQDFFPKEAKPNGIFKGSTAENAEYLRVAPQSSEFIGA
Assay: EGFR signaling (pEGFR Tyr1068/total EGFR MSD) in A431 cells
Format: cell-based
Set-up: endogenous in cells; host or cells: A431, N87
Details: ratio A431 pEGFR EC50 to BT474 pHER2 EC50
assayReadout: Selectivity A431 EC50/BT474 EC50

INSERT INTO results (molecule, studysystem, assayvalue) VALUES
  ('Cc1ccc(Oc2ccc(Nc3ncnc4sc5c(c34)C(C)CN(C(=O)C=CCN(C)C)C5)cc2C)cn1 (single isomer, unassigned) [Compound 106]', 'EGFR (Homo sapiens)', 'B (B: ≥ 20 and < 100)'),
  ('Cc1cc(Nc2ncnc3sc4c(c23)CCN(C(=O)/C=C/CN2CC3CC(C3)C2)C4)ccc1Oc1ccc2ncnn2c1 [Compound 82]', 'EGFR (Homo sapiens)', 'C (C: ≥ 10 and < 20)'),
  ('Cc1ccc(Oc2ccc(Nc3ncnc4sc5c(c34)CCN(C(=O)/C=C/CN3CCOC[C@@H]3C)C5)cc2C)cn1 [Compound 32]', 'EGFR (Homo sapiens)', 'B (B: ≥ 20 and < 100)'),
  ('Cc1ccc(Oc2ccc(Nc3ncnc4sc5c(c34)C(C)N(C(=O)C=CCN(C)C)C5)cc2C)cn1 (single isomer, unassigned) [Compound 147]', 'EGFR (Homo sapiens)', 'B (B: ≥ 20 and < 100)');

Hey, can you go through the list below and give me Selectivity A431 EC50/BT474 EC50 for every item?
1. Cc1ccc(Oc2ccc(Nc3ncnc4sc5c(c34)CN(C(=O)/C=C/CN(C)C)CC5)cc2C)cn1 [Compound 108]
2. Cc1ccc(Oc2ccc(Nc3ncnc4sc5c(c34)CCN(C(=O)/C=C/CN3CCOCC3)C5)cc2C)cn1 [Compound 17]
3. Cc1cc(Nc2ncnc3sc4c(c23)CCN(C(=O)/C=C/CN(C)C)C4)ccc1Oc1ccc2ncnn2c1 [Compound 3]
4. Cc1ccc(Oc2ccc(Nc3ncnc4sc5c(c34)CN(C(=O)C=CCN(C)C)C5C)cc2C)cn1 (single isomer, unassigned) [Compound 169]
5. CCN(CC)C/C=C/C(=O)N1CCc2c(sc3ncnc(Nc4ccc(Oc5ccc(OC)nc5)c(C)c4)c23)C1 [Compound 137]
6. COc1ccc(Oc2ccc(Nc3ncnc4sc5c(c34)CCN(C(=O)/C=C/CN3CC[C@H](CO)C3)C5)cc2C)cn1 [Compound 140]

Reply:
1: C (C: ≥ 10 and < 20); 2: C (C: ≥ 10 and < 20); 3: B (B: ≥ 20 and < 100); 4: C (C: ≥ 10 and < 20); 5: D (D: ≥ 5 and < 10); 6: B (B: ≥ 20 and < 100)

Provide the reported Selectivity A431 EC50/BT474 EC50 of each entry below, same order.
1. COc1ccc(Oc2ccc(Nc3ncnc4sc5c(c34)C(C)CN(C(=O)C=CCN(C)C)C5)cc2C)cn1 (single isomer, unassigned) [Compound 160]
2. O=C(/C=C/CN1CC2CCC(C2)C1)N1CCc2c(sc3ncnc(Nc4ccc(Oc5ccc6ncnn6c5)c(Cl)c4)c23)C1 [Compound 88]

Reply:
["D (D: ≥ 5 and < 10)", "C (C: ≥ 10 and < 20)"]
